The reported numbers originate from patent US12371414B2.

target: CK-1δ (Homo sapiens); assay: Cellular target engagement (NanoBRET) competition assay; assay type: cell-based; set-up: expressed in transfected cells; host or cells: 293T-HEK cells; settings: NanoLuc-tagged kinase in 293T-HEK cells, tracer displacement; read-out: NanoBRET CK-1d IC50
Sequence (P48730 whole entry): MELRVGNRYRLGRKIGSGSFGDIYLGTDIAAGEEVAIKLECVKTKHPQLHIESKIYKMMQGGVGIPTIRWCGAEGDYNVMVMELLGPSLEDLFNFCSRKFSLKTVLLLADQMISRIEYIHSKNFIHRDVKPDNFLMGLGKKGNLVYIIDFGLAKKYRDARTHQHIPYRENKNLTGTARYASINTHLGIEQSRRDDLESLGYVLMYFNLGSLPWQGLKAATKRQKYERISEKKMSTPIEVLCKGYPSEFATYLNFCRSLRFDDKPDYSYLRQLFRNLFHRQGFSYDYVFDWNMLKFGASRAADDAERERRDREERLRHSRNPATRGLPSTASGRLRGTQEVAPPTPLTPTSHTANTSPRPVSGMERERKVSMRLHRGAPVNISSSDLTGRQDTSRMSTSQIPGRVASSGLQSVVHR
Form field: IC50 (one value per entry).

smiles_structure: Cc1cc(-c2nc(CC(C)C)[nH]c(=O)c2-c2ccc(Cl)cc2F)ccn1
IC50: < 0.4 µM
--
smiles_structure: CC(C)Cc1nc(-c2ccncc2)c(-c2ccc(Cl)cc2)c(=O)[nH]1
IC50: < 0.4 µM
--
smiles_structure: CNc1nc(-c2ccncc2)c(-c2ccc(Cl)cc2)c(=O)n1C
IC50: 0.4 to 0.8 µM
